Measured Cmax FREE, listed per entry for reference.
- test description: Plasma concentration (Cmax) during the TQT study, total and calculated free
- Format: in vivo, human
- particulars: Cmax low; calculated with PPB and molecular weight
Please respond with the number in nM and leave the unit unwritten.

Example results:
[[record]]
molecule = "Cc1cn([C@@H]2C[C@@H](O)[C@H](CO)O2)c(=O)[nH]c1=O"
experimental_readout = "Cmax FREE"
obs_value = 8782.56

[[record]]
molecule = "CCCc1nc(C)c2c(=O)nc(-c3cc(S(=O)(=O)N4CCN(CC)CC4)ccc3OCC)[nH]n12"
experimental_readout = "Cmax FREE"
obs_value = 0.762

[[record]]
molecule = "CS(=O)(=O)CCNCc1ccc(-c2ccc3ncnc(Nc4ccc(OCc5cccc(F)c5)c(Cl)c4)c3c2)o1"
experimental_readout = "Cmax FREE"
obs_value = 23.905


Challenge: Consider the molecule N[C@@H](CC(=O)N1CCn2c(nnc2C(F)(F)F)C1)Cc1cc(F)c(F)cc1F and give its measured Cmax FREE.
Response given: 855.851

Challenge: Consider the molecule Cc1nc2n(c(=O)c1CCN1CCC(c3noc4cc(F)ccc34)CC1)CCCC2O (stereo not shown) and give its measured Cmax FREE.
Response given: 22.1576

Challenge: Consider the molecule CC1=NN(c2ccc(C)c(C)c2)C(=O)/C1=N\Nc1cccc(-c2cccc(C(=O)O)c2)c1O and give its measured Cmax FREE.
Response given: 57.8574

Challenge: Consider the molecule Cc1cc(C#N)cc(C)c1Oc1nc(Nc2ccc(C#N)cc2)nc(N)c1Br and give its measured Cmax FREE.
Response given: 2.116

Challenge: Consider the molecule CN1CC(=O)N2[C@H](c3ccc4c(c3)OCO4)c3[nH]c4ccccc4c3C[C@@H]2C1=O and give its measured Cmax FREE.
Response given: 136.05

Challenge: Consider the molecule O=C1c2cccc3c2[C@H](CCC3)CN1[C@@H]1CN2CCC1CC2 and give its measured Cmax FREE.
Response given: 2.910

Challenge: Consider the molecule CCCc1nn(C)c2c(=O)[nH]c(-c3cc(S(=O)(=O)N4CCN(C)CC4)ccc3OCC)nc12 and give its measured Cmax FREE.
Response given: 15.0021

Taken from paper PMC4266452.
